Each recorded value in this set is attributed to PubChem BioAssay (Tox21).

test system: thyroid hormone receptor (rat, GH3 cells); assay: qHTS assay to identify small molecule agonists of the thyroid receptor (TR) signaling pathway (AID 743066); settings: GH3.TRE-Luc cells, TR agonist luciferase, 24 h; series mostly up to 83.9 µM
Results filed as inconclusive are left out. Activity calls are given as the source filed them. Calls follow the shape of the full dose curve.
Labels: 1 (yes) (active), 0 (no) (inactive)

COMPOUND	CLASS ASSIGNMENT
COC(=O)NCCC[Si](OC)(OC)OC	0 (no)
C=CCCCCCCC=C	0 (no)
O=C1c2c(O)ccc([N+](=O)[O-])c2C(=O)c2c([N+](=O)[O-])ccc(O)c21	0 (no)
CCCCOC(=O)C(C)CC (centres undefined)	0 (no)
C1CC(COCC2CO2)CCC1COCC1CO1 (centres undefined)	0 (no)
CC(C)OC(=O)c1cc(C(=O)OC(C)C)cc([N+](=O)[O-])c1	0 (no)
Cc1c(C(=O)O)cccc1[N+](=O)[O-]	0 (no)
Clc1ccccc1CN1CCc2sccc2C1	0 (no)
CNC(=S)NN	0 (no)
CC1=C(/C=C/C(C)=C/C=C/C(C)=C\C=O)C(C)(C)CCC1	0 (no)
CCCCCCCCCCCCCC[n+]1ccccc1	0 (no)
S=C(SSSSSSC(=S)N1CCCCC1)N1CCCCC1	0 (no)
CCCCCCCC/C=C\CCCCCCCC(=O)OCCOC(=O)CCCCCCC/C=C\CCCCCCCC	0 (no)
CC(C)N=C(N)/N=C(\N)Nc1ccc(Cl)cc1	0 (no)
CC(C)(C)C1=CC(=O)C=C(C(C)(C)C)C1=O	0 (no)
CCC(=O)OCCc1ccccc1	0 (no)
CCCCCCC(C)OC(=O)COc1nc(F)c(Cl)c(N)c1Cl (centres undefined)	0 (no)
Nc1ncnc2c1ncn2[C@@H]1O[C@H](COP(=O)(O)O)[C@@H](O)[C@H]1O	0 (no)
CCO[Si](CCCSSSSCCC[Si](OCC)(OCC)OCC)(OCC)OCC	0 (no)
CCCCCCCCCCCCCCNCCO	0 (no)
CCOC(=O)[C@@](C)(N)Cc1ccc(O)c(O)c1	0 (no)
CCc1cccc(C)c1	0 (no)
Brc1ccccc1-c1ccccc1	0 (no)
C[C@@]12C(=O)OC(=O)[C@]1(C)C1CCC2O1	0 (no)
CCCCCCCCCCCCN(CCO)CCO	0 (no)
Cn1cnc2ncnc(N)c21	0 (no)
CCC(C)(C)c1cc(O)c(C(C)(C)CC)cc1O	0 (no)
CCCCCCCCCCCCCOP(=O)(O)O	0 (no)
CCCCCCCCCC(=O)N(C)C	0 (no)
c1ccc(Sc2ccccc2)cc1	0 (no)
CC(O)C#CC(C)O (centres undefined)	0 (no)
CCCCCCCOC(=O)c1ccc(O)cc1	0 (no)
Nc1ccc2cc3ccc(N)cc3nc2c1	0 (no)
Oc1ccc(-c2ccccc2)c(Cl)c1	0 (no)
C[C@]12CC[C@H]3C(=CCc4cc(O)ccc43)[C@@H]1CCC2=O	1 (yes)
C/C=C/C=N/NC(=O)c1ccncc1	0 (no)
O=C(Nc1ccc(Cl)c(Cl)c1)c1cc(Cl)cc(Cl)c1O	0 (no)
O=Nc1ccc(NO)cc1	0 (no)
CCN1CCN(c2cc(-c3ccc(F)cc3)c3c(n2)CCCCCC3)CC1	0 (no)
CC(C)(c1cc(Br)c(OCCO)c(Br)c1)c1cc(Br)c(OCCO)c(Br)c1	0 (no)
CC(C)=C1CC[C@@H](C)CC1=O	0 (no)
Cc1ccc(N)cc1O	0 (no)
CN(Cc1cc(Br)cc(Br)c1N)C1CCCCC1	0 (no)
O=C(O)CCCCCCC(=O)O	0 (no)
C(=C/c1ccccc1)/c1ccccc1	0 (no)
Oc1ccc(-c2ccc(O)cc2)cc1	0 (no)
N[C@@H](CSSC[C@H](N)C(=O)O)C(=O)O	0 (no)
Nc1cc(Cl)c([N+](=O)[O-])cc1O	0 (no)
NCCCC(O)(P(=O)(O)O)P(=O)(O)O	0 (no)
O=C(O)c1cccc(Cl)n1	0 (no)
O=C(O)Cc1ccc(OCCNC[C@H](O)c2ccccc2)cc1	0 (no)
C[Si](C)(C)Cl	0 (no)
CN(C)c1ccc(N=Nc2ccccc2C(=O)O)cc1	0 (no)
C[C@@H]1CC[C@H]2C(C)(C)[C@H]3C[C@@]12CC[C@@]3(C)O	0 (no)
NC(=O)c1ccccc1N	0 (no)
CCCCCCCCCCCCOC(=O)c1cc(O)c(O)c(O)c1	0 (no)
CCCCCCOc1ccc(O)cc1	0 (no)
CC(=O)OC(OC(C)=O)c1ccc([N+](=O)[O-])o1	0 (no)
CC(C)(c1cc(Br)c(O)c(Br)c1)c1cc(Br)c(O)c(Br)c1	0 (no)
